Data provenance: patent US10323028B2

Below, each entry is listed with its recorded pIC50.
System: NCI-H1703 cells
assay-overview: GLS Cell Proliferation Assay (NCI-H1703 cell proliferation)
Assay type: cell-based
condition-summary: Homo sapiens, NCI-H1703, 120 h, NCI-H1703 cells, 5 days; read-out: Assay c) Prolif Mean IC50
pIC50: −log10 of the molar value.
readout-kind: pIC50

[
  {
    "molecule": "CCO[C@H](C(=O)Nc1nnc(N[C@@H]2CCN(c3cccnn3)C2)s1)c1cccc(N2CC(OC)C2)c1",
    "readout-kind": "pIC50",
    "value": 8.27
  },
  {
    "molecule": "COc1cc(OC)cc([C@@H](OC)C(=O)Nc2nnc(N[C@@H]3CCN(c4cccnn4)C3)s2)c1",
    "readout-kind": "pIC50",
    "value": 7.23
  },
  {
    "molecule": "CO[C@H](C(=O)Nc1nnc(N[C@@H]2CCN(c3cccnn3)C2)s1)c1ccc(F)c(N2CC(F)C2)c1 (single isomer, unassigned)",
    "readout-kind": "pIC50",
    "value": 7.24
  },
  {
    "molecule": "COc1cc(OC)cc([C@H](OC)C(=O)Nc2nnc(N[C@@H]3CCN(c4cccnn4)C3)s2)c1",
    "readout-kind": "pIC50",
    "value": 8.65
  }
]
